Target: a4b7(R213S) (human) (UniProt P13612)
Sequence (P13612 34-1032, chain 1 of 2): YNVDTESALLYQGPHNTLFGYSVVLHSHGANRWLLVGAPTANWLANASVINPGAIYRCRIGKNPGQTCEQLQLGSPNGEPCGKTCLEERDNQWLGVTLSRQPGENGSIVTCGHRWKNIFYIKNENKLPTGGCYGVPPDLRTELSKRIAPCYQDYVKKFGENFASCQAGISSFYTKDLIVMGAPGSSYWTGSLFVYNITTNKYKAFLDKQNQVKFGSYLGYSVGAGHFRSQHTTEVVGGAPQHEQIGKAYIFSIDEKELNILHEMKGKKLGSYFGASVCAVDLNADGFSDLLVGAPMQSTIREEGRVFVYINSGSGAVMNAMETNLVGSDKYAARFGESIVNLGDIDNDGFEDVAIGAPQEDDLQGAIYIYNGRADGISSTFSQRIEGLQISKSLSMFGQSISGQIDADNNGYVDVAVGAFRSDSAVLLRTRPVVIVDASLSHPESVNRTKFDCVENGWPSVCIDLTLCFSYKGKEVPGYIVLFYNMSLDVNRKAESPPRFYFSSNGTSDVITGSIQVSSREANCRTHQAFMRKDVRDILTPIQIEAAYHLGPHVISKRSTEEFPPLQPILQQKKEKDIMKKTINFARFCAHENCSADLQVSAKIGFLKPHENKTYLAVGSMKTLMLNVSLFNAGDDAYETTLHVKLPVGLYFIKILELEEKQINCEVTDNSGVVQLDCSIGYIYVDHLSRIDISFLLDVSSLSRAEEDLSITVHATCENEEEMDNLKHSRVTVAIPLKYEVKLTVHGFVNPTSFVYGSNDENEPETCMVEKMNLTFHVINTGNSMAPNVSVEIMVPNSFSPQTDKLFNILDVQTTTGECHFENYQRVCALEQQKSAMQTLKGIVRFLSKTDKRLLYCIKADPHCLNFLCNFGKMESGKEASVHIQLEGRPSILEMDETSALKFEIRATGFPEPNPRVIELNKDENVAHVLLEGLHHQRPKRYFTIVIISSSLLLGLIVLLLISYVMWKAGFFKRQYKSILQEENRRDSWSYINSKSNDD
Sequence (P26010 20-798 R213S, chain 2 of 2, further chain): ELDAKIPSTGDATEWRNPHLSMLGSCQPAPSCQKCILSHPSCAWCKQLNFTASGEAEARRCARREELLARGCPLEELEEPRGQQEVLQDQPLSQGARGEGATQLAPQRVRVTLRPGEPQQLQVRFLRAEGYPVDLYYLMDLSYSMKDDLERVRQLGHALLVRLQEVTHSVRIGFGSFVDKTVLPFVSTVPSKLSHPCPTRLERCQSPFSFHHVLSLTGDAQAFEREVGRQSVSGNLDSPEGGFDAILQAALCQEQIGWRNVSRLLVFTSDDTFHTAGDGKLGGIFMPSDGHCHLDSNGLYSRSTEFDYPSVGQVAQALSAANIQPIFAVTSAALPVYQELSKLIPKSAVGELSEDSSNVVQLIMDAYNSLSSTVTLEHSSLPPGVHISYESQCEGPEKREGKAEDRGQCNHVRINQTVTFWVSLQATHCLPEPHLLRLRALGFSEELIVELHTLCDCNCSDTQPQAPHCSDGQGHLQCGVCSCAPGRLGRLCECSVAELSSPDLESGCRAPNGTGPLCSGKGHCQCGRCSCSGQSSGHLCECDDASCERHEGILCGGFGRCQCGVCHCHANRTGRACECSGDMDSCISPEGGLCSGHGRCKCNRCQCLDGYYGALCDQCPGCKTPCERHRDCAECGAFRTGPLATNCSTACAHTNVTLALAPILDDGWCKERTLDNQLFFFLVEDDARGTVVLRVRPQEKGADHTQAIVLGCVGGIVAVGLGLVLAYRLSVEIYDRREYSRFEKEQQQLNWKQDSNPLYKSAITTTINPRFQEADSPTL
Experiment: FACS on transfected 293 cells, 1 microG/ml, PE anti-human IgG
endpoint_label: fluorescence staining intensity (geometric mean)
Format: numeric value only, no unit, no commentary.

In: Supply fluorescence staining intensity (geometric mean) value. Item: 25C9 (antibody, V domains shown, Fully human monoclonal from XenoMouse (human IgG2 or IgG4); kappa light chain; also called 25C9k; 25C9K) VH: QVQLVESGGGLVKPGGSLRLSCAASGFTFNDYYMSWIRQAPGKGLEWVSYISSSGSAIHYADSVKGRFTISRDNAKNSLYLQMNSLRAEDTAVYYCAREYSSGWAYFDYWGQGTLVTVSS VL: DIQMTQSPSSVSASVGDRVTITCRASQDISSWLAWYQRKPGKAPKVLIYSASSLQSGVPSRFSGSGSGTDFTLTISSLQPEDFATYYCQQADSFPWTFGQGTKVEIK
Out: 33
